# tgt: Mitogen-activated protein kinase 8 (Homo sapiens) (UniProt P45983)
# Sequence (P45983 whole entry): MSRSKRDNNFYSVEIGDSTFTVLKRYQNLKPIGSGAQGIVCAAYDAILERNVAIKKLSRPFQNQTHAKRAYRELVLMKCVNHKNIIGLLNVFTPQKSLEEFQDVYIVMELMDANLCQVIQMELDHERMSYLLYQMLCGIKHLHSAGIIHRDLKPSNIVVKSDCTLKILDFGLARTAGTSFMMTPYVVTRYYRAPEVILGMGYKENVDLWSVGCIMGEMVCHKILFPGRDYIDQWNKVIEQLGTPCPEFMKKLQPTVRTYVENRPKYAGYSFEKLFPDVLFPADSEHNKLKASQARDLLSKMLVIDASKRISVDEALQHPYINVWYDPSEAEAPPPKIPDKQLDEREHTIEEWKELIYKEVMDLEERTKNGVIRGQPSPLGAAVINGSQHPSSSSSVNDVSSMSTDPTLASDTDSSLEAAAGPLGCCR
# assay_method_text: Inhibition of JNK1 at 10 uM by HTRF assay relative to control
experimental_endpoint: inhibition (%)

molecule=Cc1cccc(Oc2ccnc(N3CCC[C@H]3C(=O)NCCCn3ccnc3)n2)c1 unit_annotation=% value_observed=0

a. COc1cccc(Nc2cc(Nc3cccc(C(=O)N(C)CCc4ccccn4)c3)nc(N)n2)c1
b. CN(C)c1ccc(C(=O)N2CCN(c3ncnc4c3CN(Cc3ccccc3)CC4)CC2)c2ccccc12
c. Cc1cccc(Nc2nccc3c2CN(C(=O)c2cc(C)n(C)c2C)CC3)c1
Input: Given 3 molecules, produce a descending ranking by inhibition. Write the labels, ordered according to the request.
Output: a, b, c
(a: 19%, b: 6%, c: 0%)

P. COC(=O)C(CO)NC(=O)[C@@H]1CCCN1c1nccc(Oc2cccc(C)c2)n1 (stereo partly drawn)
Q. Cc1cccc(CN2CCN(c3cc(N(C)c4cccc(C)c4)ncn3)CC2)c1
R. Cc1cccc(N(C)c2cc(Nc3cccc(C(=O)N4CCCC5CCCCC54)c3)ncn2)c1 (stereo not drawn)
S. O=C(NCCc1ccc(O)cc1)c1cccc(Nc2nccc(Nc3ccc4ncsc4c3)n2)c1
Input: Please put the entries in order of rising inhibition. I would appreciate it if you listed the labels in the requested order.
Output: R, P, Q, S

I. Cc1cccc(Oc2ccnc(N3CCC[C@H]3C(=O)NCc3cccnc3)n2)c1
II. CC(=O)N1CCN(C(=O)c2cccc(Nc3cc(N(C)c4cccc(C)c4)ncn3)c2)CC1
III. Nc1nc(N2CCOCC2)cc(N2CCC(C(=O)NCCc3ccc(O)cc3)CC2)n1
Input: Please put the entries in order of rising inhibition. List the labels according to the requested ordering.
Output: II, III, I
(II: 0%, III: 4%, I: 6%)

* * *

# tgt: Insulin-like growth factor 1 receptor (Homo sapiens) (UniProt P08069)
# Sequence (P08069 31-736 limits assumed): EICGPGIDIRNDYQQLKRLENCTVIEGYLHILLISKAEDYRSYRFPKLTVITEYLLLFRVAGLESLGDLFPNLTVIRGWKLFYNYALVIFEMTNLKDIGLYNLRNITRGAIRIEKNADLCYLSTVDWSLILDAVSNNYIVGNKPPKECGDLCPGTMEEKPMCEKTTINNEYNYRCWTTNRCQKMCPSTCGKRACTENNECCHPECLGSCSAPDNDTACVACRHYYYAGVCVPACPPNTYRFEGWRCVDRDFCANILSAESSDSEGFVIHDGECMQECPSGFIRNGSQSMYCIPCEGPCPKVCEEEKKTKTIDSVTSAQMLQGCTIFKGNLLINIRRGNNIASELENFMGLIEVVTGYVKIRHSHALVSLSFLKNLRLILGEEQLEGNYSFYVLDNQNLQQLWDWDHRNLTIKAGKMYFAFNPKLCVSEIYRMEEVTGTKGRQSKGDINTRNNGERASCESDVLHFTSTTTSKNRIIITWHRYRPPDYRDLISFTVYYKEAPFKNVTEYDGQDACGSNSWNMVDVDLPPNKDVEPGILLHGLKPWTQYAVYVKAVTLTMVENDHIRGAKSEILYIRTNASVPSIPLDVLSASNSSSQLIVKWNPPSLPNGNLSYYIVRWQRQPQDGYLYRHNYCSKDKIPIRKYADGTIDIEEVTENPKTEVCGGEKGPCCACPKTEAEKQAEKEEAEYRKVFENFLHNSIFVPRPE
# Sequence (P08069 741-1367 limits assumed): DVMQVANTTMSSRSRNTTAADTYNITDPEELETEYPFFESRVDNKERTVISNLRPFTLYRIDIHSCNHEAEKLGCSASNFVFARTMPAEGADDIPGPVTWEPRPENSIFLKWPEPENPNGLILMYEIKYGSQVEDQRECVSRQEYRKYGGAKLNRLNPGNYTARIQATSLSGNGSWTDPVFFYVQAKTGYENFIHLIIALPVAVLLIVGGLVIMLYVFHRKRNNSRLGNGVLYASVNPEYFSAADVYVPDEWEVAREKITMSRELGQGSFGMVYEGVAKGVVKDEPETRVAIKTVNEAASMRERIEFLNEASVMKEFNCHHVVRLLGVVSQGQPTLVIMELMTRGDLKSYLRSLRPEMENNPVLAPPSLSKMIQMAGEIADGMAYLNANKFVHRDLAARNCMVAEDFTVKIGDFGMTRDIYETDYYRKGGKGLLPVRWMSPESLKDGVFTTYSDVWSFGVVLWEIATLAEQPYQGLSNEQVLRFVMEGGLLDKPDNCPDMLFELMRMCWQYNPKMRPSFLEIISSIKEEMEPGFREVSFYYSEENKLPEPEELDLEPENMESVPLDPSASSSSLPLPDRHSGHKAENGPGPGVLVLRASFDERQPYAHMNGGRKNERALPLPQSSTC
# assay_method_text: Inhibition of IGF1R at 10 uM by HTRF assay relative to control
experimental_endpoint: inhibition (%)

compound="Cc1cccc(N(C)c2cc(Nc3cccc(C(=O)N4CCCC5CCCCC54)c3)ncn2)c1 (centres undefined)" experimental_endpoint=inhibition value_observed=0
compound=Nc1nc(Nc2ccc(C(=O)NCCc3ccncc3)cc2)cc(N2CCOCC2)n1 experimental_endpoint=inhibition value_observed=0
compound=Nc1nc(N2CCOCC2)cc(N2CCC(C(=O)NCc3cccs3)CC2)n1 experimental_endpoint=inhibition value_observed=0
compound=Cc1cc(C(=O)N2CCN(c3ncnc4c3CN(Cc3ccccc3)CC4)CC2)c(C)n1C experimental_endpoint=inhibition value_observed=0
compound=Cc1cccc(N(C)c2cc(N3CCN(CC(=O)Nc4nc(-c5ccccc5)cs4)CC3)ncn2)c1 experimental_endpoint=inhibition value_observed=6
compound=Cc1cccc(Oc2ccnc(N3CCN(CC(=O)Nc4cccc5c4CCCC5)CC3)n2)c1 experimental_endpoint=inhibition value_observed=0

1. Cc1cccc(N(C)c2cc(Nc3cccc(C(=O)NCc4ccncc4)c3)ncn2)c1
2. Nc1nc(Nc2ccc3ncsc3c2)cc(N2CCC[C@H]2C(=O)N[C@@H](CO)c2ccccc2)n1
Input: Field: entry with larger inhibition (options 1 / 2 ). Please identify the chosen entry by its label.
Output: 2

* * *

# tgt: Mitogen-activated protein kinase 12 (Homo sapiens) (UniProt P53778)
# Sequence (P53778 whole entry): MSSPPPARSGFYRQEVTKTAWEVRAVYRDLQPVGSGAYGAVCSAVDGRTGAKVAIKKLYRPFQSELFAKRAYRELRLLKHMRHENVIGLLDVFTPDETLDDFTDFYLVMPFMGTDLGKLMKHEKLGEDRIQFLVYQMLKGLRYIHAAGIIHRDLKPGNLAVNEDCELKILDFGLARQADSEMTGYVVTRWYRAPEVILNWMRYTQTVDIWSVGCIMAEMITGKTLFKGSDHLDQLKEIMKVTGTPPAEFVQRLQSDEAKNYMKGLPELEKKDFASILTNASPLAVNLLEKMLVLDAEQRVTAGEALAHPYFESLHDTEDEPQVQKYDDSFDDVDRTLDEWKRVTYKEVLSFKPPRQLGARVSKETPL
# assay_method_text: Inhibition of p38-gamma at 10 uM by HTRF assay relative to control
experimental_endpoint: inhibition (%)

P. COC[C@@H]1CCCN1C(=O)C1CCCN1c1cc(Nc2cccc(Br)c2)ncn1 (some centres undefined)
Q. COC[C@@H]1CCCN1C(=O)[C@@H]1CCCN1c1cc(Nc2cccc(OC)c2)nc(N)n1
Input: Form: Entry with minimum inhibition (choose one): P / Q Give the chosen item's label as your response.
Output: P

P. Cc1cccc(N(C)c2cc(Nc3cccc(C(=O)NCCCn4ccnc4)c3)ncn2)c1
Q. Nc1nc(N2CCOCC2)cc(N2CCC(C(=O)NCc3cccs3)CC2)n1
Input: Among P and Q , whose measured inhibition is the smaller figure? Respond using the label that marks the chosen record.
Output: Q

I. CN(C)CC(C)(C)CNC(=O)C1CCN(c2cc(N3CCOCC3)nc(N)n2)CC1
II. Cc1cccc(N(C)c2cc(N3CCN(C(=O)Cc4c[nH]c5ccccc45)CC3)ncn2)c1
III. Cc1cccc(N(C)c2cc(Nc3cccc(C(=O)NCc4ccc(N(C)C)cc4)c3)ncn2)c1
Input: # ascending order, key=inhibition Answer with the labels in sequence, matching the requested order.
Output: III, I, II

* * *

# tgt: Mitogen-activated protein kinase 1 (Homo sapiens)
# assay_method_text: Inhibition of ERK2 at 10 uM by HTRF assay relative to control
experimental_endpoint: inhibition (%)

A. Nc1nc(Nc2ccc3ncsc3c2)cc(N2CCC[C@H]2C(=O)NCCc2cccc(I)c2)n1
B. Nc1nc(Nc2ccccc2)cc(N2CCC(C(=O)NCCc3ccccn3)CC2)n1
C. Cc1cccc(N(C)c2cc(Nc3cccc(C(=O)NCc4ccc(N(C)C)cc4)c3)ncn2)c1
D. Cc1cccc(Nc2nccc3c2CN(C(=O)c2cc(C)n(C)c2C)CC3)c1
Input: Please put the 4 molecules above in a list ordered by falling inhibition. // respond by listing labels in the order requested
Output: D, C, B, A

a. Cc1cccc(N(C)c2cc(Nc3cccc(C(=O)N4CCCC5CCCCC54)c3)ncn2)c1 (stereo not drawn)
b. Cc1cccc(CN2CCN(c3cc(N(C)c4cccc(C)c4)ncn3)CC2)c1
c. O=C(c1nc(SCc2ccc(Cl)cc2)n2ccccc12)N1CCN(c2cc(Nc3cccc(Br)c3)ncn2)CC1
d. O=C(c1nc(SCc2ccc(Cl)cc2)n2ccccc12)N1CCN(c2ncnc3c2CN(Cc2ccccc2)CC3)CC1
Input: Order these by inhibition, descending, and give the full ranking. Submit the labels in the order that the ranking request calls for.
Output: b, d, c, a
(b: 8%, d: 3%, c: 1%, a: 0%)

A. Cc1cccc(N(C)c2cc(N3CCN(CC(=O)Nc4nc(-c5ccccc5)cs4)CC3)ncn2)c1
B. Cc1cccc(N(C)c2cc(Nc3cccc(C(=O)N(CC(C)C)CC(C)C)c3)ncn2)c1
Input: Hi, I'm comparing two records. Which one has the lower inhibition, A or B ? // return label of chosen record
Output: A

1. O=C(NCc1ccncc1)c1cccc(Nc2cc(Nc3cccc(Br)c3)ncn2)c1
2. CN(C)c1ccc(C(=O)N2CCN(c3ncnc4c3CN(Cc3ccccc3)CC4)CC2)c2ccccc12
Input: Between the entries labeled 1 and 2 , whose measured inhibition is lower? Provide the label of your selected option as the answer.
Output: 1

1. Nc1nc(Nc2ccc3ncsc3c2)cc(N2CCC[C@H]2C(=O)N[C@@H](CO)c2ccccc2)n1
2. Cc1cccc(Oc2ccnc(N3CCN(CC(=O)Nc4cccc5c4CCCC5)CC3)n2)c1
Input: Compare 1 and 2 by numeric inhibition and name the larger one. Could you answer with the label of the item you picked?
Output: 2

* * *

# tgt: Vascular endothelial growth factor receptor 2 (Homo sapiens) (UniProt P35968)
# Sequence (P35968 whole entry): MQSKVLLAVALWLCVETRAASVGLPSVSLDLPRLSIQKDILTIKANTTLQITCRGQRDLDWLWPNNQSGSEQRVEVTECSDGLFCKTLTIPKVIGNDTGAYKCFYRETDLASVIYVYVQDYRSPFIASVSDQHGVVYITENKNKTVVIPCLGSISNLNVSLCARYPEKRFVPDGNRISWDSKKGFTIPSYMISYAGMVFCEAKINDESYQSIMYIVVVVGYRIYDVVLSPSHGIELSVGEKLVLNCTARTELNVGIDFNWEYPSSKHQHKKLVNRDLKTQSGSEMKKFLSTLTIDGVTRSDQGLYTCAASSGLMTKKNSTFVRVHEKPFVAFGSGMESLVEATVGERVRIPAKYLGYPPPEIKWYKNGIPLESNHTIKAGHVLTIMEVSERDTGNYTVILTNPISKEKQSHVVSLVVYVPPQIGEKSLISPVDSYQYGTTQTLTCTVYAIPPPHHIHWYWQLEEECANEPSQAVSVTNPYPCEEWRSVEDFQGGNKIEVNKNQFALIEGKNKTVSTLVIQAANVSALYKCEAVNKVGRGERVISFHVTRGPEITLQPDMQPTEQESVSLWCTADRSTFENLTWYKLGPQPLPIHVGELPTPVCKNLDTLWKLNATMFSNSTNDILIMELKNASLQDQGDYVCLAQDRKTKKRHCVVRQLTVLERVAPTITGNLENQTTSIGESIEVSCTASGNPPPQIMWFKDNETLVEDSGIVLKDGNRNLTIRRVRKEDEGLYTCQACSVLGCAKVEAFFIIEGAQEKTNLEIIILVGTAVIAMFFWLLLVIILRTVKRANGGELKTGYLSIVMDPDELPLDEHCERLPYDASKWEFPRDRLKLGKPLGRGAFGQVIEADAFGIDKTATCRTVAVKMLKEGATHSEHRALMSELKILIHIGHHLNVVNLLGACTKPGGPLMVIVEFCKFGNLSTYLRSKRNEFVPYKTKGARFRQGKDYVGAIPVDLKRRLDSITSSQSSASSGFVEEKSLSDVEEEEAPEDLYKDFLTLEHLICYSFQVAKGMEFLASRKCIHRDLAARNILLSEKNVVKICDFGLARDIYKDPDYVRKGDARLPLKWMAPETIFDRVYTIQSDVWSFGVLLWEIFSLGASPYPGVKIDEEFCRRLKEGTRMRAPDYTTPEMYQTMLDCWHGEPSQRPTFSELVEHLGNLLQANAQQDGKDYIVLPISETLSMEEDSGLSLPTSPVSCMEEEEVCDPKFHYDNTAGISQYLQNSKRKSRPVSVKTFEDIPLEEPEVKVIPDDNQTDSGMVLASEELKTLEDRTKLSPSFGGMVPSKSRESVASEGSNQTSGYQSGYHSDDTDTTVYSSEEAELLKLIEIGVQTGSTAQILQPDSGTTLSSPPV
# assay_method_text: Inhibition of KDR at 10 uM by HTRF assay relative to control
experimental_endpoint: inhibition (%)

I. Cc1cccc(Nc2nccc(Nc3cccc(C(=O)NCc4ccc(N(C)C)cc4)c3)n2)c1
II. CN(CCc1ccccn1)C(=O)c1cccc(Nc2nccc(Nc3ccc4ncsc4c3)n2)c1
III. Nc1nc(Nc2ccccc2)cc(N2CCC(C(=O)NCCc3ccccn3)CC2)n1
IV. Cc1ccc(CN2CCN(c3nccc(C(C#N)c4ccccn4)n3)CC2)cc1 (stereo unspecified)
Input: Ranking request: inhibition, max to min, items above. Please reply with the labels ordered as requested. Many thanks.
Output: II, I, III, IV
(II: 95%, I: 11%, III: 1%, IV: 0%)

* * *

# tgt: Tyrosine-protein kinase ABL1 (Homo sapiens) (UniProt P00519)
# Sequence (P00519 whole entry): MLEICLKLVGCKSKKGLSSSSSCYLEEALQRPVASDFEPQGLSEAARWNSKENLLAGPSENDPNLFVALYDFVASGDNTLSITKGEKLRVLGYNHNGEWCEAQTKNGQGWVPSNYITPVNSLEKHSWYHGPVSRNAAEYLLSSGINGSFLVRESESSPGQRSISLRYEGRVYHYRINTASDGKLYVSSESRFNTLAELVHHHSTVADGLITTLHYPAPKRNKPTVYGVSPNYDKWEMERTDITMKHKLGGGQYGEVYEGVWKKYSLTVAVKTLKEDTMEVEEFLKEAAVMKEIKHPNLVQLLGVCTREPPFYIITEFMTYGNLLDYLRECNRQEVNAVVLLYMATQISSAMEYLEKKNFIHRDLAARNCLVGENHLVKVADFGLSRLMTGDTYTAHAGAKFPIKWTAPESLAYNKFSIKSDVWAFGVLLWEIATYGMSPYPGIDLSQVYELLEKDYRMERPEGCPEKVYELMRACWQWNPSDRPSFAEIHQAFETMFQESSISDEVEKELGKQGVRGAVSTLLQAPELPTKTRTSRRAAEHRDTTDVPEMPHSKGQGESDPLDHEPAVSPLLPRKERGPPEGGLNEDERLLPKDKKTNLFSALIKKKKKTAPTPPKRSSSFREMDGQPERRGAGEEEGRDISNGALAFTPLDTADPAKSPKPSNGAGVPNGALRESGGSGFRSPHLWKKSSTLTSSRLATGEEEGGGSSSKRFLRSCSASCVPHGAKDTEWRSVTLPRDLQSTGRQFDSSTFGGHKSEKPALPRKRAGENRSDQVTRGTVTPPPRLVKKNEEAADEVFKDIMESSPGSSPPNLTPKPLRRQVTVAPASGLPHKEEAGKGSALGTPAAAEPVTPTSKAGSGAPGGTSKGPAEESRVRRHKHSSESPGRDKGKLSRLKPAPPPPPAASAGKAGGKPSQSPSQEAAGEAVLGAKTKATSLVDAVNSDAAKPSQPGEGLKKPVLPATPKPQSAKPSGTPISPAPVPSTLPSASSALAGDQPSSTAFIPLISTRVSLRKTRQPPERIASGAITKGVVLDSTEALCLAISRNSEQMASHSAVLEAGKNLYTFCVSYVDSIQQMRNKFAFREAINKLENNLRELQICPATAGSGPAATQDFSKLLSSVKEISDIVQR
# assay_method_text: Inhibition of Abl at 10 uM by HTRF assay relative to control
experimental_endpoint: inhibition (%)

smiles_repr=CN(CCCn1ccnc1)C(=O)[C@@H]1CCCN1c1nccc(Nc2ccccc2)n1 experimental_endpoint=inhibition value_observed=2

A. Cc1cccc(N(C)c2cc(N3CCN(C(=O)Cc4c[nH]c5ccccc45)CC3)ncn2)c1
B. Nc1nc(N2CCOCC2)cc(N2CCC(C(=O)NCc3cccs3)CC2)n1
Input: Which numeric inhibition is bigger, that of A or that of B ? Label of pick, please.
Output: A
(A: 6%, B: 0%)

a. Cc1cccc(Oc2ccnc(N3CCC[C@H]3C(=O)NCc3cccnc3)n2)c1
b. Cc1cccc(CN2CCN(c3cc(N(C)c4cccc(C)c4)ncn3)CC2)c1
Input: Just curious, which one has the larger inhibition reading, a or b ? Answer = label.
Output: a
(a: 7%, b: 2%)

* * *

# tgt: Mitogen-activated protein kinase 8 (Homo sapiens) (UniProt P45983)
# assay_method_text: Inhibition of JNK1 at 10 uM by HTRF assay relative to control
experimental_endpoint: inhibition (%)

Answered examples (4):
compound=COc1cccc(Nc2cc(Nc3cccc(C(=O)NCCCn4ccnc4)c3)nc(N)n2)c1 tgt="Mitogen-activated protein kinase 8 (Homo sapiens) (UniProt P45983)" experimental_endpoint=inhibition value_observed=71
compound=Nc1nc(Nc2ccc3ncsc3c2)cc(N2CCC[C@H]2C(=O)N[C@@H](CO)c2ccccc2)n1 tgt="Mitogen-activated protein kinase 8 (Homo sapiens) (UniProt P45983)" experimental_endpoint=inhibition value_observed=0
compound=CN(C)CC(C)(C)CNC(=O)[C@@H]1CCCN1c1nccc(Nc2ccccc2)n1 tgt="Mitogen-activated protein kinase 8 (Homo sapiens) (UniProt P45983)" experimental_endpoint=inhibition value_observed=0
compound=O=C(NCc1ccncc1)c1cccc(Nc2cc(Nc3cccc(Br)c3)ncn2)c1 tgt="Mitogen-activated protein kinase 8 (Homo sapiens) (UniProt P45983)" experimental_endpoint=inhibition value_observed=28

a. Cc1cccc(Oc2ccnc(N3CCN(C(=O)c4c(C)noc4C)CC3)n2)c1
b. COC[C@@H]1CCCN1C(=O)[C@@H]1CCCN1c1cc(Nc2cccc(OC)c2)nc(N)n1
c. CN(CCc1ccccn1)C(=O)c1cccc(Nc2nccc(Nc3ccc4ncsc4c3)n2)c1
d. COc1cccc(Nc2cc(N3CCC[C@H]3C(=O)NCCc3ccc(O)cc3)nc(N)n2)c1
e. Cc1cccc(N(C)c2cc(Nc3cccc(C(=O)NCc4ccncc4)c3)ncn2)c1
Input: Arrange the 5 entries by inhibition so the values rise. Put the labels in the requested order and write them down.
Output: b, d, a, e, c
(b: 0%, d: 1%, a: 13%, e: 19%, c: 70%)

P. COC[C@@H]1CCCN1C(=O)[C@@H]1CCCN1c1nccc(Nc2ccccc2)n1
Q. O=C(c1nc(SCc2ccc(Cl)cc2)n2ccccc12)N1CCN(c2cc(Nc3cccc(Br)c3)ncn2)CC1
Input: Endpoint returns the identifier whose inhibition is numerically larger, either P or Q . In your reply, give the label of the chosen option.
Output: Q

a. Cc1cc(C(=O)N2CCN(c3ncnc4c3CN(Cc3ccccc3)CC4)CC2)c(C)n1C
b. O=C(NCc1cccnc1)c1cccc(-c2ccc(Nc3ccc4ncsc4c3)nn2)c1
Input: Thinking about recorded inhibition values, which is higher, a or b ? # answer = label of selected item
Output: b
(b: 55%, a: 0%)

1. CN(CCc1ccccn1)C(=O)[C@@H]1CCCN1c1nccc(Nc2ccccc2)n1
2. Cc1cccc(N(C)c2cc(Nc3cccc(C(=O)NCCCn4ccnc4)c3)ncn2)c1
Input: Which entry shows the lesser value of inhibition here, 1 or 2 ? Kindly state the label of the option you pick.
Output: 1
